Where a name gives a salt, the structure may show the parent alone.

| molecule | melting point |
| --- | --- |
| CC1(C)CCC23CC[C@]4(C)C(CCC5[C@@]6(C)C=C(O)C(=O)C(C)(C)C6CC[C@]54C)C2C1OC3=O (some centres unmarked) | 238.8 to 243.6 °C (dec.) |
| Cc1ccc(S(=O)(=O)OC2CC[C@@]3(C)C(CC[C@]4(C)C3CCC3C5C6OCC5(CCC6(C)C)CC[C@]34C)C2(C)C)cc1 (some centres unmarked) (as salt: tosylate) [Example 9, Allobetulin Tosylate] | 180 to 182.6 °C (dec.) |
| CC1(C)CCC23CC[C@]4(C)C(CCC5[C@@]6(C)CCC(=O)C(C)(C)C6CC[C@]54C)C2C1OC3=O (some centres unmarked) | 333.7 to 335.9 °C (dec.) |
| CC1(C)CCC23CC[C@]4(C)C(CCC5[C@@]6(C)CC(Br)C(=O)C(C)(C)C6CC[C@]54C)C2C1OC3=O (some centres unmarked) | 338 to 342.8 °C (dec.) |
| CC1(C)CCC23CC[C@]4(C)C(CCC5[C@@]6(C)C=C(O)C(=O)C(C)(C)C6CC[C@]54C)C2C1OC3 (some centres unmarked) | 236.8 to 238.8 °C |

---

assay: Cell proliferation assay (cytotoxicity) in HFF cells; type: cell-based, human; details: Human foreskin fibroblast cells; reduces growth of uninfected cells by 50%

| compound | CC50 at 72 h |
| --- | --- |
| CC1(C)CCC23CC[C@]4(C)C(CCC5[C@@]6(C)CCC(O)C(C)(C)C6CC[C@]54C)C2C1OC3=O (stereo partly shown) | > 0.125 µg/mL |

---

System: HSV-1 strain F
Experiment: CPE inhibition, HSV-1 strain F in HEp-2 cells; further: key: +++ = Complete cytopathic effect; ++ = Moderate cytopathic effect; + = Minimum cytopathic effect; − = No cytopathic effect
Format: cell-based, herpes simplex virus type 1
Conditions: conc. per compound (ng/ml)
Protocol: Human laryngeal epithelial carcinoma cells (HEp-2, ATCC, Rockville, Md.) were used for testing of antiviral compounds by cytopathic effect (CPE) inhibition and plaque reduction assay. […] The antiviral activity of the test compounds was determined against HSV-1 strain F, HSV-2 strain G (ATCC), HSV-1 strain E-377 and HSV-2 strain MS (Dr. E. R. Kern, see above), CMV strain AD 169 (NIH), HCMV (NIH), MCMV (NIH), and VZV strain Ellen (NIH). […]
measured parameter: Cytopathic Effect (CPE) Inhibition HSV-1 Strain F

| molecule | experimental value |
| --- | --- |
| CC1(C)CCC23CCC4(C)C(CCC5C6(C)CCC(OC(=O)c7ccccc7C(=O)O)C(C)(C)C6CCC54C)C2C1OC3 (stereo not drawn) [Allobetulin 3-phthalate, Allobetulin, 3-Phthalate] | ++ |
| CC1(C)CCC23CC[C@]4(C)C(CCC5[C@@]6(C)CCC(O)C(C)(C)C6CC[C@]54C)C2C1OC3 (stereo partly drawn) [Allobetulin, 3β-hydroxy-19αH-19,28-epoxy-oleanane] | ++ |
| CC1(C)CCC23CC[C@]4(C)C(CCC5[C@@]6(C)C=C(O)C(=O)C(C)(C)C6CC[C@]54C)C2C1OC3 (stereo partly drawn) | ++ |

---

Listed compounds paired with reported CC50 at 72 h
test: CC50 in HFF cells (Table 3); type: cell-based, human; details: human, HFF cells, Human Cytomegalovirus section of Table 3; read-out: CC50

| compound | CC50 at 72 h |
| --- | --- |
| C[C@H]1[C@H](C)CC[C@]2(C(=O)O)CC[C@]3(C)C(=CC[C@@H]4[C@@]5(C)CC[C@H](O)C(C)(C)[C@@H]5CC[C@]43C)[C@H]12 | > 0.1 µg/mL |
| Nc1nc(O)c2ncn(COC(CO)CO)c2n1 [Ganciclovir ®, Ganciclovir, reference compound] | > 100 µg/mL |
